Data origin: patent US10028913B2

- assay-method-text: Tissue distribution in S-180 tumor-bearing mice
- Format: in vivo
- experimental-parameters: male, Kunming, mouse, liver, intravenous; 4 mg/kg i.v., t 8 h; read-out: concentration of mitoxantrone in Liver
endpoint-name: concentration at 8 h
Answer format: number, then unit.

Problem: Report concentration at 8 h for O=C1c2c(O)ccc(O)c2C(=O)c2c(NCCNCCO)ccc(NCCNCCO)c21 [FM, mitoxantrone] please.
Result: 2660 ng/g

###

- assay-method-text: Tissue distribution in S-180 tumor-bearing mice
- Assay type: in vivo
- experimental-parameters: male, Kunming, mouse, heart, intravenous; 4 mg/kg i.v., t 4 h; read-out: concentration of mitoxantrone in Heart
endpoint-name: concentration at 4 h (ng/g)
Your answer is read as ng/g, so omit the unit and give the number.

Problem: // lookup concentration at 4 h for O=C1c2c(O)ccc(O)c2C(=O)c2c(NCCNCCO)ccc(NCCNCCO)c21 [FM, mitoxantrone]
Result: 3520

###

- assay-method-text: Tissue distribution in S-180 tumor-bearing mice
- Format: in vivo
- experimental-parameters: male, Kunming, mouse, liver, intravenous; 4 mg/kg i.v., t 24 h; read-out: concentration of mitoxantrone in Liver
endpoint-name: concentration at 24 h
The answer consists of two parts: a number and, after it, its unit.

Problem: Any idea what concentration at 24 h was measured for O=C1c2c(O)ccc(O)c2C(=O)c2c(NCCNCCO)ccc(NCCNCCO)c21 ?
Result: 1940 ng/g

###

- assay-method-text: Tissue distribution in S-180 tumor-bearing mice
- Format: in vivo
- experimental-parameters: male, Kunming, mouse, heart, intravenous; 4 mg/kg i.v., t 8 h; read-out: concentration of mitoxantrone in Heart
endpoint-name: concentration at 8 h (ng/g)
Give the value in ng/g but do not write ng/g after it.

Problem: Endpoint output: concentration at 8 h of O=C1c2c(O)ccc(O)c2C(=O)c2c(NCCNCCO)ccc(NCCNCCO)c21 . Value?
Result: 3200

###

- assay-method-text: Tissue distribution in S-180 tumor-bearing mice
- Assay type: in vivo
- experimental-parameters: male, Kunming, mouse, tumor, intravenous; 4 mg/kg i.v., t 1 h; read-out: concentration of mitoxantrone in Tumor
endpoint-name: concentration at 1 h (ng/g)
# output: bare number, implied unit ng/g

Problem: Recorded concentration at 1 h of O=C1c2c(O)ccc(O)c2C(=O)c2c(NCCNCCO)ccc(NCCNCCO)c21 , please.
Result: 61.4

###

- assay-method-text: Tissue distribution in S-180 tumor-bearing mice
- Format: in vivo
- experimental-parameters: male, Kunming, mouse, lung, intravenous; 4 mg/kg i.v., t 8 h; read-out: concentration of mitoxantrone in Lung
endpoint-name: concentration at 8 h (ng/g)
Supply the numeric figure in ng/g, leaving out any unit text.

Problem: State the recorded concentration at 8 h for this entry: O=C1c2c(O)ccc(O)c2C(=O)c2c(NCCNCCO)ccc(NCCNCCO)c21 [FM, mitoxantrone]
Result: 7020

###

- assay-method-text: Pharmacokinetics of PLM60 and FM in Kunming mice (plasma level of mitoxantrone)
- Format: in vivo
- experimental-parameters: male, Kunming, mouse, iv, 2 mg/kg, tail vein, read-out: AUC 0-48
endpoint-name: AUC(0-t) (ng·h/mL)
Kindly answer with a numeric value in ng·h/mL, unit omitted.

Problem: Look up AUC(0-t): O=C1c2c(O)ccc(O)c2C(=O)c2c(NCCNCCO)ccc(NCCNCCO)c21
Result: 198

###

- assay-method-text: Tissue distribution in S-180 tumor-bearing mice
- Format: in vivo
- experimental-parameters: male, Kunming, mouse, heart, intravenous; 4 mg/kg i.v., t 24 h; read-out: concentration of mitoxantrone in Heart
endpoint-name: concentration at 24 h

Problem: Dear colleague, I am looking for the recorded concentration at 24 h of the following compound: O=C1c2c(O)ccc(O)c2C(=O)c2c(NCCNCCO)ccc(NCCNCCO)c21
Result: 2940 ng/g

###

- assay-method-text: Pharmacokinetics of PLM60 and FM in Kunming mice (plasma level of mitoxantrone)
- Assay type: in vivo
- experimental-parameters: male, Kunming, mouse, iv, 2 mg/kg, tail vein
endpoint-name: Tmax (min)
Answer in min, number only, no unit symbol.

Problem: Reported Tmax, molecule O=C1c2c(O)ccc(O)c2C(=O)c2c(NCCNCCO)ccc(NCCNCCO)c21 [FM, mitoxantrone] : ____
Result: 4.98

###

- assay-method-text: Pharmacokinetics of PLM60 and FM in Kunming mice (plasma level of mitoxantrone)
- Type: in vivo
- experimental-parameters: male, Kunming, mouse, iv, 2 mg/kg, tail vein
endpoint-name: Cmax (ng/mL)
Report the figure in ng/mL without appending any unit label.

Problem: For O=C1c2c(O)ccc(O)c2C(=O)c2c(NCCNCCO)ccc(NCCNCCO)c21 [FM, mitoxantrone] , what is its reported Cmax?
Result: 699

###

- assay-method-text: Tissue distribution in S-180 tumor-bearing mice
- Assay type: in vivo
- experimental-parameters: male, Kunming, mouse, kidney, intravenous; 4 mg/kg i.v., t 1 h; read-out: concentration of mitoxantrone in Kidney
endpoint-name: concentration at 1 h (ng/g)
Answer in ng/g, number only, no unit symbol.

Problem: Fill in the blank: the reported concentration at 1 h of O=C1c2c(O)ccc(O)c2C(=O)c2c(NCCNCCO)ccc(NCCNCCO)c21 is ____.
Result: 18200

###

- assay-method-text: Tissue distribution in S-180 tumor-bearing mice
- Type: in vivo
- experimental-parameters: male, Kunming, mouse, tumor, intravenous; 4 mg/kg i.v., t 4 h; read-out: concentration of mitoxantrone in Tumor
endpoint-name: concentration at 4 h (ng/g)
Express your answer in ng/g, writing the number without its unit.

Problem: May I ask what concentration at 4 h has been recorded for O=C1c2c(O)ccc(O)c2C(=O)c2c(NCCNCCO)ccc(NCCNCCO)c21 ?
Result: 13.3

###

- assay-method-text: Tissue distribution in S-180 tumor-bearing mice
- Type: in vivo
- experimental-parameters: male, Kunming, mouse, lung, intravenous; 4 mg/kg i.v., t 24 h; read-out: concentration of mitoxantrone in Lung
endpoint-name: concentration at 24 h (ng/g)
Numbers only here, please. The scale is ng/g.

Problem: Need concentration at 24 h of O=C1c2c(O)ccc(O)c2C(=O)c2c(NCCNCCO)ccc(NCCNCCO)c21 , thanks.
Result: 8080
